- measuredOn: Serine/threonine-protein kinase PLK1 (Homo sapiens)
- assayRemarks: qHTS for Inhibitors of PLK1-PDB (polo-like kinase 1 - polo-box domain): Primary Screen; also: nearly all actives have a fitted effect of over 65% in size; as to max response, negative = inhibition: series mostly up to about 57 µM; % is scaled to controls: 0 for no effect and ±100 for the full control effect
- reportedConditions: Plk1 PBD binding of FITC phosphopeptide, fluorescence polarization
In all, about 360,000 compounds went through this assay and about 10,000 (2.8%) were called active. About 4% were inconclusive and are not listed. This excerpt belongs to a sample that is enriched for actives.
measuredMetric: max response, negative = inhibition

>  <compound>
Cc1ccccc1C1=N/C(=C/c2cccnc2)C(=O)O1

>  <max response, negative = inhibition>
-12.6% (inactive)

$$$$
>  <compound>
O=C(O)CCCC(=O)N1N=C(c2ccco2)CC1c1ccco1 (stereo not given)

>  <max response, negative = inhibition>
-14% (inactive)

$$$$
>  <compound>
CCCCC[C@H](C)N1C[C@@H](COCc2ccccc2)Oc2cc(N3CC[C@@H](N(C)C)C3)ccc2S1(=O)=O

>  <max response, negative = inhibition>
4.46% (inactive)

$$$$
>  <compound>
CCOC(=O)c1cc2cc(OC)ccc2n1C1CCN(C)CC1

>  <max response, negative = inhibition>
-4.75% (inactive)

$$$$
>  <compound>
COc1ccnc2c1c(=O)n(Cc1cccc(F)c1)c(=O)n2C

>  <max response, negative = inhibition>
-8.75% (inactive)

$$$$
>  <compound>
COc1ccc([C@H]2CC(=O)C[C@@H](CCn3cc(CC4CCCC4)nn3)O2)cc1

>  <max response, negative = inhibition>
2.62% (inactive)

$$$$
>  <compound>
CC1CC(C)CN(C(=O)C2CC(=O)N(c3ccc(F)cc3)C2)C1 (stereo not given)

>  <max response, negative = inhibition>
-7.49% (inactive)

$$$$
>  <compound>
O=S1(=O)CC(N2CCN(Cc3ccccc3F)CC2)CN1Cc1cn(Cc2cccc(C(F)(F)F)c2)nn1 (stereo not given)

>  <max response, negative = inhibition>
-2.54% (inactive)

$$$$

// lookup max response, negative = inhibition | system=Serine/threonine-protein kinase PLK1 (Homo sapiens) | key= CC(C)NC(=O)N1Cc2cc(C(=O)NCC(F)(F)F)nc(-c3cccc(-c4cc5ccccc5o4)c3)c2[C@@H]1CCO
-2.2% (inactive)

Param readout= max response, negative = inhibition; system= Serine/threonine-protein kinase PLK1 (Homo sapiens); entry= O=C(C1CC(=O)N(C2CCCCC2)C1)N1CCN(c2ccccc2)CC1 (stereo not given) ; returns value.
-15.5% (inactive)

* * *

- measuredOn: Serine/threonine-protein kinase PLK1 (Homo sapiens)
- assayRemarks: qHTS for Inhibitors of PLK1-PDB (polo-like kinase 1 - polo-box domain): Primary Screen; also: nearly all actives have a fitted effect of over 65% in size; also: potency is read from the fitted curve at half-maximal effect
- reportedConditions: Plk1 PBD binding of FITC phosphopeptide, fluorescence polarization
Out of some 360,000 compounds screened, about 10,000 (2.8%) were called active. Roughly 4% stayed inconclusive and do not appear here. The sample holds actives, similar compounds and a random draw of the others, so the mix is not that of the screen.
Here the recorded Potency is given for each entry.

Example entries begin here.
>  <compound>
CCS(=O)(=O)C1=NSC2=NC(=O)/C(=C\c3ccc(OS(=O)(=O)c4ccccc4)cc3)C(=N)N21

>  <Potency>
29.9 µM (active)

$$$$
>  <compound>
Cc1cc(=O)[nH]c2nnnn12

>  <Potency>
23.8 µM (active)

$$$$
>  <compound>
O=C(O)c1ccccc1CSc1nc2ccccc2s1

>  <Potency>
8.44 µM (active)

$$$$
>  <compound>
O=C(O)c1cccc(S(=O)(=O)Nc2ccc(O)cc2Sc2nc3ccccc3s2)c1

>  <Potency>
13.4 µM (active)

$$$$
>  <compound>
COc1cccc(-c2cc(C(=O)N/N=C/c3ccc(OC)c(COC(C)=O)c3)c3ccccc3n2)c1

>  <Potency>
29.9 µM (active)

$$$$

Need Potency of CCc1nnc(NC(=O)C2CC(=O)N(c3ccc4c(c3)OCCO4)C2)s1 (stereo unspecified) , thanks.
13.4 µM (active)

* * *

Quick reference: max response, negative = inhibition of the listed items.
- measuredOn: Serine/threonine-protein kinase PLK1 (Homo sapiens) (UniProt P53350)
- Sequence (P53350 whole entry, looked up, the tested form may be a part): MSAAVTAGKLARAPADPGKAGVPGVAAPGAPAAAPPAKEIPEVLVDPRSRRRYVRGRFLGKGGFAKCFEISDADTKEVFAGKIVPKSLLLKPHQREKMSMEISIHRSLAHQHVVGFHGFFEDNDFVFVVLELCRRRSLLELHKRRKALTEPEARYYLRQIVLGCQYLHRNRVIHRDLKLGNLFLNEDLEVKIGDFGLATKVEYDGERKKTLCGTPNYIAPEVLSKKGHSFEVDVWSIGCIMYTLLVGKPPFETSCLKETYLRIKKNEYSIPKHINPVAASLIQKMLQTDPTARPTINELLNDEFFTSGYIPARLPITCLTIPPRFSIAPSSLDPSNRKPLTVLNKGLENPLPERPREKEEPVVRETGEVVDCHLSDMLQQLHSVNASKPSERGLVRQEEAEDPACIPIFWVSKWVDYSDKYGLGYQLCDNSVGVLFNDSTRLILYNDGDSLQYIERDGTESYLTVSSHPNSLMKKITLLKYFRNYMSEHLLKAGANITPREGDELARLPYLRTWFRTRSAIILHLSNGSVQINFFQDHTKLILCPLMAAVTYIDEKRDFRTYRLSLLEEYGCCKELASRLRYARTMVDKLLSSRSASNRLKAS
- assayRemarks: qHTS for Inhibitors of PLK1-PDB (polo-like kinase 1 - polo-box domain): Primary Screen; also: nearly all actives have a fitted effect of over 65% in size; as to max response, negative = inhibition: series mostly up to about 57 µM; % is scaled to controls: 0 for no effect and ±100 for the full control effect
- reportedConditions: Plk1 PBD binding of FITC phosphopeptide, fluorescence polarization
The campaign covered roughly 360,000 compounds. About 10,000 (2.8%) were called active. Inconclusive results (about 4%) are left out. Only a selection was taken, and actives are over-represented in it overall.
# output: bare number, implied unit %

>  <compound>
COC(=O)[C@@]1(Cc2ccc(OC)cc2)[C@H]2c3cc(C(=O)N4CCCC4)n(Cc4ccc(OC(F)(F)F)cc4)c3C[C@H]2CN1C(=O)c1ccccc1

>  <measuredMetric>
max response, negative = inhibition

>  <reportedMeasurement>
4.68

$$$$
>  <compound>
O=C(CC(CC(=O)c1ccccc1)c1ccco1)c1ccccc1

>  <measuredMetric>
max response, negative = inhibition

>  <reportedMeasurement>
13.6

$$$$
>  <compound>
CC(=O)NS(=O)(=O)c1ccc(NC(=S)NC(=O)C(C)(C)C)cc1

>  <measuredMetric>
max response, negative = inhibition

>  <reportedMeasurement>
-8.92

$$$$
>  <compound>
CC(=O)Nc1c(-c2ccc(C)cc2)nc2ccc(Cl)cn12

>  <measuredMetric>
max response, negative = inhibition

>  <reportedMeasurement>
-2.35

$$$$
>  <compound>
COC(=O)[C@@]12C[C@@H](CC(=O)N3CCC(c4ccccc4)CC3)C(=O)N(Cc3ccccc3)C1=CCC(C)(C)C2

>  <measuredMetric>
max response, negative = inhibition

>  <reportedMeasurement>
-1.16

$$$$
>  <compound>
O=C(CCC(=O)OCc1ccc(Cl)cc1)Nc1ccccc1

>  <measuredMetric>
max response, negative = inhibition

>  <reportedMeasurement>
-4.01

$$$$
>  <compound>
N#Cc1c(C(F)(F)F)cc(-c2ccc(Cl)cc2)nc1SCC(=O)O

>  <measuredMetric>
max response, negative = inhibition

>  <reportedMeasurement>
-8.73

$$$$
>  <compound>
CC(=O)c1ccc(N2Cc3ccccc3C2)cc1

>  <measuredMetric>
max response, negative = inhibition

>  <reportedMeasurement>
-10.7

$$$$

Item COC(=O)C(NS(=O)(=O)c1ccc(F)cc1)c1ccccc1 (stereo unspecified) has what recorded max response, negative = inhibition?
-18.8

Can you share its max response, negative = inhibition? I mean this compound: CC1(C)CC(=O)C=C(c2ccccc2CO)C1=O
-0.138

Consider the compound CCCCCCCCCCOC(=O)Cn1c(COc2ccc(C)cc2)[n+](C)c2ccccc21 and give its measured max response, negative = inhibition.
-18.7

Requested read-out: max response, negative = inhibition. Entry: CC(C)c1ccc(NC(=S)NC2CC3C=CC2C3)cc1 (stereo unspecified)
-23.1

Value lookup for max response, negative = inhibition; key = CCC(=O)Nc1sc(C(=O)N2CCCCC2)c(C)c1C#N
0.524

* * *

- measuredOn: Serine/threonine-protein kinase PLK1 (Homo sapiens)
- assayRemarks: qHTS for Inhibitors of PLK1-PDB (polo-like kinase 1 - polo-box domain): Primary Screen; also: nearly all actives have a fitted effect of over 65% in size; as to max response, negative = inhibition: series mostly up to about 57 µM; % is scaled to controls: 0 for no effect and ±100 for the full control effect
- reportedConditions: Plk1 PBD binding of FITC phosphopeptide, fluorescence polarization
- From the text: The polo-like kinase 1 (Plk1) is a member of a conserved subfamily of serine / threonine protein kinases that plays a pivotal roles in cell proliferation. It has a C-terminal non-catalytic region called the polo-box domain (PBD) that plays a crucial role in the subcellular localization of the Plk1. […] This project employed a fluorescence polarization (FP) assay using a FITC-conjugated phospho-9-mer (p-9-mer) peptide and purified human Plk1 PBD protein. […]
Among all 360,000 compounds or so, about 10,000 (2.8%) were called active. Not shown: some 4% with an inconclusive outcome. The sample as a whole holds a higher share of actives than the screen did.
Each entry below carries its reported max response, negative = inhibition.
# number only, unit % dropped from output

>  <compound>
COc1ccc(CNC(=O)CSc2n[nH]c(N)n2)cc1OC

>  <measuredOn>
Serine/threonine-protein kinase PLK1 (Homo sapiens)

>  <max response, negative = inhibition, %>
-18.3

$$$$
>  <compound>
COc1ccc(NC(=O)N(C)C[C@@H]2OCc3cn(nn3)CCCC(=O)N([C@H](C)CO)C[C@H]2C)c(OC)c1

>  <measuredOn>
Serine/threonine-protein kinase PLK1 (Homo sapiens)

>  <max response, negative = inhibition, %>
-13

$$$$

Tell me the measured max response, negative = inhibition of CCc1nc2c(OCc3ccc(F)c(F)c3)cccn2c1N(C)C(=O)c1ccco1 , please.
1.07

Recorded max response, negative = inhibition for NC(Cc1ccccc1)c1csc(Nc2cc(Oc3ccccc3)ncn2)n1 (stereo not given) , please?
-8.4

Which value of max response, negative = inhibition has been reported for COc1ccccc1CC1(C)C(=O)Nc2ccc(OC(F)(F)F)cc21 (stereo not given) in the records?
-13.6

What measured max response, negative = inhibition goes with O=C(c1ccc(CS(=O)Cc2ccccc2Cl)o1)N1CCN(c2ccccc2)CC1 (stereo not given) ?
-18.2
